Entries and their pKi values follow.
Molecular target: recombinant human heparanase (Homo sapiens, UniProt Q9Y251)
Sequence (Q9Y251 158-543 limits assumed): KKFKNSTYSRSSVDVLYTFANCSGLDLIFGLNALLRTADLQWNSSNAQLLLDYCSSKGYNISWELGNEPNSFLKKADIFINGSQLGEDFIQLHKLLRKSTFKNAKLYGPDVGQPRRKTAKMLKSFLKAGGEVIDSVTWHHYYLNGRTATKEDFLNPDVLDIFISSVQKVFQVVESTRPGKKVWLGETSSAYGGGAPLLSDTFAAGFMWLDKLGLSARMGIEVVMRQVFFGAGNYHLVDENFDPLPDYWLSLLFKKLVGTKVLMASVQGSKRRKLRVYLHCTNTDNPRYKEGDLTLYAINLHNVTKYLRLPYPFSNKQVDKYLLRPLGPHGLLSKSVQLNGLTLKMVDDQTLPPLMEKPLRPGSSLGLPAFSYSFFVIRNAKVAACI
Sequence (Q9Y251 36-109 limits assumed): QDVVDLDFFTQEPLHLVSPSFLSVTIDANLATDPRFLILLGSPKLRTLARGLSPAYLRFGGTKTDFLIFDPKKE
Assay: Heparanase inhibition assay (fondaparinux cleavage, WST-1)
Conditions: read-out: Ki Heparanase; IC50 converted into Ki; fondaparinux 100 μM, pH 5.0
pKi is a log-scale quantity: -log10 of the concentration expressed in molar.

CCCCCCCCCCCCCCCCCC(=O)NCCCO[C@@H]1O[C@H](COS(=O)(=O)[O-])[C@@H](O[C@H]2O[C@H](COS(=O)(=O)[O-])[C@@H](O[C@H]3O[C@H](COS(=O)(=O)[O-])[C@@H](OS(=O)(=O)[O-])[C@H](OS(=O)(=O)[O-])[C@H]3OS(=O)(=O)[O-])[C@H](OS(=O)(=O)[O-])[C@H]2OS(=O)(=O)[O-])[C@H](OS(=O)(=O)[O-])[C@H]1OS(=O)(=O)[O-].[Na+].[Na+].[Na+].[Na+].[Na+].[Na+].[Na+].[Na+].[Na+].[Na+] [Compound 123]; 7.95
CC(C)CCC[C@@H](C)[C@H]1CC[C@H]2[C@@H]3CCC4CC(O[C@H]5O[C@H](COS(=O)(=O)[O-])[C@@H](OS(=O)(=O)[O-])[C@H](O[C@H]6O[C@H](COS(=O)(=O)[O-])[C@@H](OS(=O)(=O)[O-])[C@H](O[C@H]7O[C@H](COS(=O)(=O)[O-])[C@@H](OS(=O)(=O)[O-])[C@H](OS(=O)(=O)[O-])[C@@H]7OS(=O)(=O)[O-])[C@@H]6OS(=O)(=O)[O-])[C@@H]5OS(=O)(=O)[O-])CC[C@]4(C)[C@H]3CC[C@]12C.[Na+].[Na+].[Na+].[Na+].[Na+].[Na+].[Na+].[Na+].[Na+].[Na+] (stereo partly drawn) [Compound 56]; 7.98

Measured pKi for this entry CC(C)CCCC(C)C1CCC2C3CCC4CC(OCc5cn(CCCOC6OC(COS(=O)(=O)O)C(OS(=O)(=O)O)C(OS(=O)(=O)O)C6OC6OC(COS(=O)(=O)O)C(OS(=O)(=O)O)C(OC7OC(COS(=O)(=O)O)C(OS(=O)(=O)O)C(OS(=O)(=O)O)C7OS(=O)(=O)O)C6OS(=O)(=O)O)nn5)CCC4(C)C3CCC12C (stereo not drawn) [Compound 48] on recombinant human heparanase (Homo sapiens, UniProt Q9Y251): 8.07
